Listed compounds paired with reported melting point
property measured: melting point

- compound: "CN(C)CC1Cc2ccccc2N(S(=O)(=O)CCc2ccc(-c3ccccc3)cc2)C1 (stereo not given)"
  property measured: "melting point"
  observed result: "108 to 109 °C"
- compound: "O=C(Cl)c1ncn(Cc2ccc(Cl)c(Cl)c2)c1C(=O)Cl"
  property measured: "melting point"
  observed result: "126 to 128 °C"
- compound: "CC(C)n1nc(COc2ccccc2CC(=O)O)cc1OCc1ccc2ccccc2n1"
  property measured: "melting point"
  observed result: "116 to 117 °C"
- compound: "COC(=O)CSc1cccc(CNC(=O)C2Cc3ccccc3N2S(=O)(=O)c2ccc(-c3cccc(C(F)(F)F)c3)cc2)c1 (stereo not given)"
  property measured: "melting point"
  observed result: "51 °C"
- compound: "Cc1cc(C(=O)N2CCCC2)ccc1[N+](=O)[O-]"
  property measured: "melting point"
  observed result: "61.3 to 61.9 °C"
- compound: "O=C(C=Cc1ccc(NC(=O)c2ccccc2)cc1)NO"
  property measured: "melting point"
  observed result: "232 to 234 °C"
- compound: "N#Cc1ccc(-c2ccc(OCCN(O)C=O)cc2)cc1"
  property measured: "melting point"
  observed result: "142 to 145 °C"
- compound: "Clc1ccc(-c2ccccc2Cl)nn1"
  property measured: "melting point"
  observed result: "145 to 147 °C"
- compound: "CCC(CC)Nc1n[nH]c(=O)c2c1ccn2-c1c(C)cc(C)cc1C"
  property measured: "melting point"
  observed result: "183 to 185 °C"
- compound: "CC1CCN(Cc2ccccc2)C1=Nc1ccccc1N1CCOCC1 (stereo not given)"
  property measured: "melting point"
  observed result: "96 to 97 °C"
- compound: "CS(=O)(=O)C(=C1CN(C(c2ccc(Cl)cc2)c2ccc(Cl)cc2)C1)c1cccc(C(=O)NN2CCCCC2)c1"
  property measured: "melting point"
  observed result: "175 °C"
- compound: "N#Cc1cccc(N2CCc3cc(OCc4ccccc4)ccc32)c1"
  property measured: "melting point"
  observed result: "102 to 104 °C"
- compound: "O=C(O)COCc1ccc(C=CC(=O)N2CCc3c([nH]c4ccccc34)C2c2ccc3c(c2)OCO3)cc1 (stereo not given)"
  property measured: "melting point"
  observed result: "162 to 163 °C"
- compound: "Sc1ccc2c(c1)Sc1ccc(Cl)cc1N2"
  property measured: "melting point"
  observed result: "230 to 232 °C"
- compound: "O=CNC1=NN(c2ccccn2)CC1"
  property measured: "melting point"
  observed result: "182 to 183 °C"
- compound: "Cc1c(C(=O)c2ccccc2)cccc1[N+](=O)[O-]"
  property measured: "melting point"
  observed result: "42 °C"
- compound: "Cc1nn(-c2c(Cl)cc(Cl)cc2Cl)c(N)c1C(=O)c1ccccc1Cl"
  property measured: "melting point"
  observed result: "220 °C"
- compound: "N#Cc1cccc(Oc2ncccc2O)c1"
  property measured: "melting point"
  observed result: "130 to 133 °C"
- compound: "Cc1oc(-c2ccncc2)nc1COc1ccc(Cn2cc(CCC(=O)O)c(-c3ccccc3)n2)cc1"
  property measured: "melting point"
  observed result: "154 to 155 °C"
- compound: "CC(=O)Nc1nc(CN2CCC(c3c[nH]c4ccccc34)CC2)cs1"
  property measured: "melting point"
  observed result: "204 to 207 °C"

----------
property measured: melting point

- compound: "CCOC(=O)C1C(c2ccc(I)cc2)CC(=O)N1C (centres undefined)"
  observed result: "120 to 121 °C"
- compound: "Cc1cccc(Cl)c1NC1=NCCN1"
  observed result: "112 to 114 °C"
- compound: "CC(C)[C@H](NC(=O)[C@@H]1CCCN1C(=O)[C@@H](NC(=O)Cn1ccc(=O)n(CC(=O)O)c1=O)C(C)C)C(=O)c1nc2ccccc2o1"
  observed result: "135 to 140 °C"
- compound: "COC(=O)c1ccc(COc2cc(F)cc(C3(OC)CCOCC3)c2)cc1"
  observed result: "88 to 89 °C"
- compound: "COC(=O)C=Cc1ccc(C)cc1"
  observed result: "55 to 56 °C"
- compound: "Cc1cc(SC(C)C)c(NC(=O)CCCCSc2nc3cccc(C(F)(F)F)c3o2)c(SC(C)C)n1"
  observed result: "118 to 120 °C"
- compound: "O=c1[nH]nc(COc2ccccc2)s1"
  observed result: "104 to 105 °C"
- compound: "COc1ccc(C2=C(c3c4n(c5ccccc35)CCC(COC(C)=O)C4)C(=O)OC2=O)cc1 (centres undefined)"
  observed result: "79 to 82 °C"
- compound: "CC(C)(C)OC(=O)N1CCN(c2ccc(N3CC(CO)OC3=O)cc2F)CC1 (centres undefined)"
  observed result: "144 to 146 °C"
- compound: "Cc1nc(Sc2cc(C(=O)O)ccn2)sc1CC(=O)O"
  observed result: "212 to 214 °C"
- compound: "COc1cc(OC)nc(C2(C#N)OC(=O)c3c(-c4ccccc4)ccnc32)n1 (centres undefined)"
  observed result: "196 to 198 °C"
- compound: "O=S1(=O)c2ccccc2Nc2ccc(-c3ccccc3)cc21"
  observed result: "269 to 272 °C"
- compound: "COC(=O)CCc1nsc2ccc(-n3c(=O)cc(C(F)(F)F)n(C)c3=O)cc12"
  observed result: "176 to 178 °C"
- compound: "CC(=O)NC1CCc2cc3c(cc2C1)OCC3O (centres undefined)"
  observed result: "254 °C"
- compound: "O=[N+]([O-])c1cc([N+](=O)[O-])c(N(SC(Cl)(Cl)Cl)c2cc(C(F)(F)F)ccc2Cl)c(C(F)(F)F)c1"
  observed result: "134 to 137 °C"
- compound: "COc1ccc(-c2cc(Cc3ccc(OC)c(OC4CCCC4)c3)cn2-c2ccc(S(N)(=O)=O)cc2)cc1"
  observed result: "81 to 84 °C"
- compound: "CC(C)(C)NC(=O)C1CCCN1C(=O)C(O)C(Cc1ccccc1)NC(=O)C(CC(N)=O)NC(=O)COc1cccc(NC(=O)OCc2ccccc2)c1 (centres undefined)"
  observed result: "107 to 117 °C"
- compound: "O=c1[nH]c2ncc(-c3ccn[nH]3)nc2n1CC1CCCCC1"
  observed result: "264 to 266 °C"
- compound: "O=C(O)CCCCCNS(=O)(=O)c1ccccc1"
  observed result: "113 to 115 °C"

----------
property measured: melting point

- compound: "CC1CC(=O)NN=C1c1ccc(NC2=CC(=O)CC2)cc1 (stereo not given)"
  property measured: "melting point"
  observed result: "> 300 °C"
- compound: "CCc1noc(-c2cn(-c3ccc(Oc4ccccc4)cc3)cn2)n1"
  property measured: "melting point"
  observed result: "172 to 173 °C"
- compound: "COc1ccnc(-c2ccccc2S(=O)c2nc3cc(N)ccc3[nH]2)c1 (stereo not given)"
  property measured: "melting point"
  observed result: "192 to 193 °C"
- compound: "CN1CCC(c2c(O)cc(O)c3c(=O)cc(-c4ccc(O)cc4Cl)oc23)C1CO (stereo not given)"
  property measured: "melting point"
  observed result: "> 300 °C"
- compound: "COc1ccc(-c2nn(Cc3ccc(Cl)cc3)c(=O)cc2-c2ccncc2)cc1"
  property measured: "melting point"
  observed result: "175 to 176 °C"
- compound: "CC12C=CC(=O)C=C1CCC1C2=CCC2(C)C1CCC2(O)C(=O)CCl (stereo not given)"
  property measured: "melting point"
  observed result: "205 to 206 °C"
- compound: "C=Cc1cn(-c2c(Cl)cc(C(F)(F)F)cc2Cl)nc1C"
  property measured: "melting point"
  observed result: "68.1 to 68.7 °C"
- compound: "O=C1CCCc2ccc(OCc3ccc4ccccc4n3)cc21"
  property measured: "melting point"
  observed result: "98.5 to 102 °C"
- compound: "COC(=O)c1ccc(NC(=O)C(N)c2ccc3c(c2)C(C)(C)CCC3(C)C)n1C (stereo not given)"
  property measured: "melting point"
  observed result: "143 to 144 °C"
- compound: "CN(CCNC(=O)c1nc(Cl)c(N)nc1N)CCC(=O)NCCN"
  property measured: "melting point"
  observed result: "140 to 142 °C"

----------
Listed compounds paired with reported melting point

- compound: "CC(=O)c1cccc2nnsc12"
  melting point: "126 to 127 °C"
- compound: "NCc1ccc(N2CCCN(c3ccc(CCC(=O)O)cc3)C2=O)cc1"
  melting point: "229 to 231 °C"
- compound: "O=c1oc(-c2ccccc2)nc2ccc(Br)cc12"
  melting point: "199 to 201 °C"
- compound: "O=Cc1cc(O)c2c(c1)C(=O)c1cccc(O)c1C2=O"
  melting point: "198 to 200 °C"
- compound: "COc1nc(C)cnc1NS(=O)(=O)c1cccnc1-c1ccc(CC(C)CO)cc1 (centres undefined)"
  melting point: "118 to 119 °C"
- compound: "CCOc1nn(-c2ccc(C(F)(F)F)cc2)cc1CCCOc1ccc(CCC(=O)O)cc1OC"
  melting point: "125 to 126 °C"
- compound: "CC(C)=CCOc1ccc2c(C)cc(=O)oc2c1C(=O)C=Cc1cccnc1"
  melting point: "156 to 157 °C"
- compound: "COCCOc1ccc(CCCOc2cc(CCC(=O)O)n(C)n2)c(OCc2ccc(Cl)cc2Cl)c1"
  melting point: "128 to 130 °C"
- compound: "O=P(Cc1ccc2ccccc2c1-c1c(CP(=O)(c2ccc(F)cc2)c2ccc(F)cc2)ccc2ccccc12)(c1ccc(F)cc1)c1ccc(F)cc1"
  melting point: "211 to 214 °C"

Recorded values, source a melting point compilation (Tetko et al.; mined from patent text by program, amines drawn as free bases though some values may be those of a salt).
